# measurement.description: Plasma levels, SOD1G93A model
# Format: in vivo, Transgenic SOD1^G93A male mouse
# experimental.parameters: SOD1G93A transgenic, plasma, ip; SOD1G93A male mouse, 0.25 mg/kg i.p.; 30 min post-administration; data obtained in a separate study
quantity.name: concentration at 30 min (ng/mL)
Supply the numeric figure in ng/mL, leaving out any unit text.

Please give measured concentration at 30 min of the following entry: O=C(OCCN1CCOCC1)C1(c2ccccc2)CCCCC1 [PRE-084, reference compound]
2.6

---

# measurement.description: Plasma levels, spinal nerve injury (rhizotomy) model
# Assay type: in vivo, female mouse
# experimental.parameters: female, mouse, in vivo, ip, 0.5 mg/kg
quantity.name: concentration at 15 min (ng/mL)
Report as a plain number; the unit ng/mL is understood.

Quickly give me recorded concentration at 15 min for CCN1CC2(CCN(Cc3ccc(C#N)c(F)c3)CC2)O[C@@H](C)C1=O
21

---

# measurement.description: Plasma levels, spinal nerve injury (rhizotomy) model
# Type: in vivo, female mouse
# experimental.parameters: plasma, ip; rhizotomy female mouse, 5 mg/kg i.p. bid, day 42; read-out: Plasma Concentration 15 min Post-Administration, Mean
quantity.name: concentration at 15 min
Kindly format the answer as number then unit.

// fetch concentration at 15 min given entry C[C@@H]1OC2(CCN(Cc3ccc(F)cc3)CC2)CN(C)C1=O
265 ng/mL

---

# measurement.description: Plasma levels, SOD1G93A model
# Format: in vivo, Transgenic SOD1^G93A male mouse
# experimental.parameters: male, SOD1G93A transgenic, mouse, in vivo, ip, 5 mg/kg
quantity.name: concentration at 15 min (ng/mL)
Value expressed in ng/mL; do not type the unit.

// fetch concentration at 15 min given entry CCN1CC2(CCN(Cc3ccc(C#N)c(F)c3)CC2)O[C@@H](C)C1=O
692
